Biological target: T1, hIL-4Rα on cells (human, UniProt P24394 26-825)
T1 sequence: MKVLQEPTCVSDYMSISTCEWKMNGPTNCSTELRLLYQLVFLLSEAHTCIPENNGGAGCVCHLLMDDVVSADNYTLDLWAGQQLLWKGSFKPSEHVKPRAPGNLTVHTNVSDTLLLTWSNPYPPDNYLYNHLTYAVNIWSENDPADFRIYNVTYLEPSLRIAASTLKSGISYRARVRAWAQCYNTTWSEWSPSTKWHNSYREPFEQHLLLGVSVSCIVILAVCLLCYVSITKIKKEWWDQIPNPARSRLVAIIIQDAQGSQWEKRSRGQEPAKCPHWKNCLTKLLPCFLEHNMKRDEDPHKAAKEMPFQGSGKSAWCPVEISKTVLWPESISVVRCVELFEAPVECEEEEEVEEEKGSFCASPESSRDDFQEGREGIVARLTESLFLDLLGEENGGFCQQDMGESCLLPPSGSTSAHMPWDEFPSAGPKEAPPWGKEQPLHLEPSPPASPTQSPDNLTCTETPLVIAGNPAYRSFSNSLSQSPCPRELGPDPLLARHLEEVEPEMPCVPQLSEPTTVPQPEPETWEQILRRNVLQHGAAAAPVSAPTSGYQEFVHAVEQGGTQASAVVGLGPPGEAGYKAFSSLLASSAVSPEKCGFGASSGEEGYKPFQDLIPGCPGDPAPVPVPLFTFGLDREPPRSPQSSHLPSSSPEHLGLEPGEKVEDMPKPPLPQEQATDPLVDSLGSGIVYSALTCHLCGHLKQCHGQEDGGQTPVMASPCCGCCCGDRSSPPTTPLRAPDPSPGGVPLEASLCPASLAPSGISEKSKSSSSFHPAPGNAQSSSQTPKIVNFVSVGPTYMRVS
Test: cell-based or functional assay
MEASUREMENT KIND: Inhibition of IL-13 induced TARC IC50 (pM)
Numbers only, in pM.

Some solved entries appear below for comparison.
{"columns": ["BINDER", "UNIT STRING", "ENDPOINT VALUE"],
 "data": [
  ["Construct 13 (mAb422) with IgG1 YTE LALA heavy chain constant region (antibody, V domains shown) VH: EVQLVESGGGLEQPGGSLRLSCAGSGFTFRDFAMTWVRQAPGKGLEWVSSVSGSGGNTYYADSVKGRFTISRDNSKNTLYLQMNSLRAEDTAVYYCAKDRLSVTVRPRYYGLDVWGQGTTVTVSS VL: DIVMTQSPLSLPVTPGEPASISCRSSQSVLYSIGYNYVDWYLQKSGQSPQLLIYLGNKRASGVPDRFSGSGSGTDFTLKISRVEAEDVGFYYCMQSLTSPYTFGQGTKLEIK", "pM", 261],
  ["Construct 38 (mAb471) with IgG1 YTE LALA heavy chain constant region (antibody, V domains shown) VH: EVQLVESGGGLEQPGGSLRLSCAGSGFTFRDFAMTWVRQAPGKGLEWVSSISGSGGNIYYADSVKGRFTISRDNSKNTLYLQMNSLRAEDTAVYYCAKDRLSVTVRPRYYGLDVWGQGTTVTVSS VL: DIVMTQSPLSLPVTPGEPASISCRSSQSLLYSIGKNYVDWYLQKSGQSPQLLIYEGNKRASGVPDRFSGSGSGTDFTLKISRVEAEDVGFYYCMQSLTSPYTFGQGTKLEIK", "pM", 527],
  ["Construct 24 (mAb432) with IgG1 YTE LALA heavy chain constant region (antibody, V domains shown) VH: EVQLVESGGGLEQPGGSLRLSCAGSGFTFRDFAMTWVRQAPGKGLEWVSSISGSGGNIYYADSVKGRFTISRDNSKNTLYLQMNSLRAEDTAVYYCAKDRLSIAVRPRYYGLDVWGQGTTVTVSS VL: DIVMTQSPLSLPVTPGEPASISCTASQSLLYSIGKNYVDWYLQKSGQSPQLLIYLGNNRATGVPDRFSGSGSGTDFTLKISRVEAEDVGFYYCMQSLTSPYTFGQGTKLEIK", "pM", 361]
]}

--- query ---
Exercise: Give the measured Inhibition of IL-13 induced TARC IC50 for Construct 31 (mAb443) with IgG1 YTE LALA heavy chain constant region (antibody, V domains shown) VH: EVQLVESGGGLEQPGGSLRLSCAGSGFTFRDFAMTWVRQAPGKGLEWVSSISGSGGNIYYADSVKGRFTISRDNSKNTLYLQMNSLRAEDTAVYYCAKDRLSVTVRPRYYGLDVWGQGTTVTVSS VL: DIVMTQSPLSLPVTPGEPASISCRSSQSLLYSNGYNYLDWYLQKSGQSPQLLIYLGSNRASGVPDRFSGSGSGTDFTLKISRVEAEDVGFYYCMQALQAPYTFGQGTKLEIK
Solution: 456
